Tested on: Calvarial osteoblast
protocol text: Increase in collagen 1 gene expression in rat calvarial osteoblast cells by qPCR analysis
Type: functional, cell-based
Calls of active or inactive are those of the source. The calls are words filed in the database; no cut-off is given here.

molecule: COc1cc2c(cc1O)C(c1ccccc1)=CCO2
Activity: Active
//
molecule: COc1cc2oc(=O)cc(-c3ccccc3)c2cc1O
Activity: Active
//
molecule: COc1cc2oc(=O)cc(-c3ccccc3)c2cc1OC
Activity: Active
//
molecule: COC1=CC(=O)c2cc(-c3ccccc3)c3cc(O)c(OC)cc3c2C1=O
Activity: Active
//
molecule: COc1cc(OC)c(/C(=C/C=O)c2ccccc2)cc1O
Activity: Active
//
molecule: C=CC(c1ccccc1)c1cc(O)c(OC)cc1OC (stereo unspecified)
Activity: Active
